Biological target: T1, Murine CTGF (Mus musculus, UniProt P29268)
T1 construct: purchased Abbexa
T1 sequence (P29268 26-348): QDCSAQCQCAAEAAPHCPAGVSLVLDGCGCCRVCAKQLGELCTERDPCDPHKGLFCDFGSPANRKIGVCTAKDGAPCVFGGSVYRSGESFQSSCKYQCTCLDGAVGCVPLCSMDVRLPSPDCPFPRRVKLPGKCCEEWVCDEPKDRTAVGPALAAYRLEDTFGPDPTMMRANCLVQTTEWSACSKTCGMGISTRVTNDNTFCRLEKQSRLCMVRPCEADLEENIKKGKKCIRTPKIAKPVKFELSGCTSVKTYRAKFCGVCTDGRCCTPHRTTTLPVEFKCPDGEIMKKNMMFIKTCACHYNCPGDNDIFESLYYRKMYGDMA
Assay: SPR binding kinetics and affinity, murine CTGF
Conditions: 25° C., 1:1 binding model
Method: Surface plasmon resonance (SPR) was used to measure binding kinetics and affinity of the representative lipocalin muteins disclosed herein. The binding of exemplary lipocalin muteins to human (Creative Biomart), cynomolgus, rat (R&D Systems) and mouse CTGF (Abbexa) was determined by SPR using a Biacore instrument (Cytiva, formerly GE Healthcare). […] The values determined for kon, koff and the resulting equilibrium dissociation constant (KD) for exemplary lipocalin muteins are summarized in Table 4.
Examples of molecules with documented Murine CTGF koff follow.
measured parameter: Murine CTGF koff (s⁻¹)

[[record]]
molecule = "SEQ ID NO: 19: optimized CTGF-binding hNGAL lipocalin mutein (protein, lipocalin mutein) QDSTSDLIPAPPLSKVPLQQNFQDNQFQGKWYVVGLAGNAILREDKQPAKMFATIYELKEDKSYDVTSVRFEAKSCSYTIKTFVPGSQPGEFTAGNIKSAPGQTSTLVRVVSTNYNQHAMVFHKAVSQNRESFVITLYGRTKELTSELKENFIRFSKSLGLPENHIVFPVPIDQCIDG"
quantitative_readout = "2.54e-05"

[[record]]
molecule = "SEQ ID NO: 21: optimized CTGF-binding hNGAL lipocalin mutein (protein, lipocalin mutein) QDSTSDLIPAPPLSKVPLQQNFQDNQFQGKWYVVGLAGNAILREDKQPAKMFATIYELKEDKSYDVTSVRFEAKSCSYTIKTFVPGSQPGEFTAGNIKSAPGQTSTLVRVVSTNYNQHAMVFFKAVRGARESFNIALYGRTKELTSELKENFIRFSKSLGLPENHIVFPVPIDQCIDG"
quantitative_readout = "3.94e-05"

[[record]]
molecule = "SEQ ID NO: 36: optimized CTGF-binding hNGAL lipocalin mutein (protein, lipocalin mutein) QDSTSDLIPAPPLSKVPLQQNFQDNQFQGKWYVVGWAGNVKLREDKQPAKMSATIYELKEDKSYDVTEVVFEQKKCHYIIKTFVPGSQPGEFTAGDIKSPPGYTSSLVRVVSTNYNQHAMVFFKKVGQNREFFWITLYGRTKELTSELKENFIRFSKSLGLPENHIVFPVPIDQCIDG"
quantitative_readout = 0.00052

